# normalized growth per record follows
Experiment: chemical genetic growth profiling, strain panel (AID 1159580);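 note: tested at 20 µM; growth read once vehicle control cultures reached saturation at 30 °C; 1 = growth at the plate median or of vehicle wells; lower values mean less growth of the strain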
Settings: S. cerevisiae deletion strains, growth OD, locus YOR080W, strain dia2, hits give low values
Out of some 5,500 compounds screened, about 2,000 (36%) were called active. Not shown: some 18% with an inconclusive outcome. The list shows a part of the results.
Please respond with just the number, no unit label.

The following molecules have reported results that may help.
COC(=O)COc1cc(Cl)c(Cl)cc1Cl ... 1
O=C1CC(c2ccc(O)c(O)c2)Oc2cc(O)cc(O)c21 (stereo not given) ... 0.984
COc1cc2c(cc1OC)C(=O)C(CC1CCN(Cc3ccccc3)CC1)C2 (stereo not given) ... 0.953
C=CCc1ccc2c(c1)OCO2 ... 1.03
O=c1ccc2cc(O)c(O)cc2o1 ... 1

Using the record for "CCCCOc1ccc(OCCCN2CCOCC2)cc1" , report its normalized growth.
0.985

Using the record for "CCCCOc1ccc(C(=O)CCN2CCCCC2)cc1" , report its normalized growth.
0.975
